- Procedure Details: in vitro
- Assay type: cell-based, human
- Assay Context: human, leucocytes, first experimentation; 3 hours; C1 = 2.5 μg/ml; read-out: % of dead cells
Provide the reported cytotoxicity at 3 h of each item.

# Compound, Measured
records = [
    ("COc1cc2c(c(OC)c1OC)-c1ccc(SC)c(=O)cc1C(NC(=O)C13CC4CC(CC(C4)C1)C3)CC2 (single isomer, unassigned)", "0%"),
]

For the next question, use this compound.
Give cytotoxicity at 3 h for COc1cc2c(c(OC)c1OC)-c1ccc(OC)c(=O)cc1[C@@H](NC(C)=O)CC2 [Colchicine, colchicine, reference compound]
1%
